# tested-on: B2 bradykinin receptor (Homo sapiens, UniProt P30411)
# Sequence (P30411 whole entry): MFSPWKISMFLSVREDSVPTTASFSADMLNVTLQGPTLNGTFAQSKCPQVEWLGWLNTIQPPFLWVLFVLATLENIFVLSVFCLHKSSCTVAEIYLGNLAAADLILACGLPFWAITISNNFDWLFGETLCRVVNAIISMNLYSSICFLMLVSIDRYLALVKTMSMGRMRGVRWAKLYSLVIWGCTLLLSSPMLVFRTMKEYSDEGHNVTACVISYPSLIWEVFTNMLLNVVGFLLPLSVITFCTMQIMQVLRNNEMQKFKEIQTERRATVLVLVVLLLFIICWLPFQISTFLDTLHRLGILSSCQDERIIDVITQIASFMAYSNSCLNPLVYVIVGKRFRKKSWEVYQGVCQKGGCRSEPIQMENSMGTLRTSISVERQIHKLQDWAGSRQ
# measurement-protocol: Antagonist activity at human bradykinin B2 receptor expressed in dhfr-deficient CHO cells assessed as inhibition of bradykinin-induced inositol monophosphate accumulation preincubated for 15 mins prior bradykinin induction measured after 40 mins by liquid scintillation spectrometry
# Type: functional, cell-based
# run-conditions: read-out: pA2 (converted)
measurement-label: Kb (nM)
The reply should be a number in nM, with the unit left off.

Cc1cc(C)c2cccc(OCc3c(Cl)ccc(S(=O)(=O)NC4(C(=O)N5CCC(CC[N+](C)(C)C)CC5)CCOCC4)c3Cl)c2n1 | 3.98
Cc1cc(C)c2cccc(OCc3c(Cl)ccc(S(=O)(=O)NC4(C(=O)N5CCC(CNCCC[N+](C)(C)C)CC5)CCOCC4)c3Cl)c2n1 | 2.51
Cc1cc(C)c2cccc(OCc3c(Cl)ccc(S(=O)(=O)NC4(C(=O)N5CCC(CNCC[N+](C)(C)C)CC5)CCOCC4)c3Cl)c2n1 | 2.51
Cc1cc(C)c2cccc(OCc3c(Cl)ccc(S(=O)(=O)NC4(C(=O)N5CCN(C(=O)CCCCN(C)C)CC5)CCOCC4)c3Cl)c2n1 | 0.437
Cc1cc(C)c2cccc(OCc3c(Cl)ccc(S(=O)(=O)NC4(C(=O)N5CCC(CCCC[N+](C)(C)C)CC5)CCOCC4)c3Cl)c2n1 | 3.98
Cc1cc(C)c2cccc(OCc3c(Cl)ccc(S(=O)(=O)NC4(C(=O)N5CC[N+]6(CC5)CC[N+](C)(C)CC6)CCOCC4)c3Cl)c2n1 | 5.01
Cc1cc(C)c2cccc(OCc3c(Cl)ccc(S(=O)(=O)NC4(C(=O)N5CCN(C(=O)CCCCC[N+](C)(C)C)CC5)CCOCC4)c3Cl)c2n1 | 0.794
Cc1cc(C)c2cccc(OCc3c(Cl)ccc(S(=O)(=O)NC4(C(=O)N5CCN(C(=O)CCC[N+](C)(C)C)CC5)CCOCC4)c3Cl)c2n1 | 0.794

Exercise: Please report the measured Kb for "Cc1cc(C)c2cccc(OCc3c(Cl)ccc(S(=O)(=O)NC4(C(=O)N5CC[N+]6(CCN(C)CC6)CC5)CCOCC4)c3Cl)c2n1"
Solution: 1.58

Exercise: Please report the measured Kb for "Cc1cc(C)c2cccc(OCc3c(Cl)ccc(S(=O)(=O)NC4(C(=O)N5CCN(C(=O)[C@@H](N)CCCC[N+](C)(C)C)CC5)CCOCC4)c3Cl)c2n1"
Solution: 0.398

Exercise: Please report the measured Kb for "Cc1cc(C)c2cccc(OCc3c(Cl)ccc(S(=O)(=O)NC4(C(=O)N5CC[N+](C)(CCCCCC[N+](C)(C)C)CC5)CCOCC4)c3Cl)c2n1"
Solution: 3.16

----------
Listing of entries alongside the reported pKi.
# tested-on: UniProt:P46663
# Sequence (P46663 whole entry): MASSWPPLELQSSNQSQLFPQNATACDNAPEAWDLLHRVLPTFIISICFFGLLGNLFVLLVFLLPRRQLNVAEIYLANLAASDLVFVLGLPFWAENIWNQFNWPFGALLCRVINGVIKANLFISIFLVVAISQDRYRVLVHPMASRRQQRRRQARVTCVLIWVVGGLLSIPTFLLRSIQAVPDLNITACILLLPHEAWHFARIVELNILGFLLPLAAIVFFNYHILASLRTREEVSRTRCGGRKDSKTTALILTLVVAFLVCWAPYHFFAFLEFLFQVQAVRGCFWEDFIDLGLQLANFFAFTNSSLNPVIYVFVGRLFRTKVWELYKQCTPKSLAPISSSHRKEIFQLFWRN
pKi: −log10 of the molar value.

Below, 5 compounds whose answers are already recorded.
Cc1cc(C)c2cccc(OCc3c(Cl)ccc(S(=O)(=O)NC4(C(=O)N5CC[N+](C)(CCCCCC[N+](C)(C)C)CC5)CCOCC4)c3Cl)c2n1 | < 5.00
Cc1cc(C)c2cccc(OCc3c(Cl)ccc(S(=O)(=O)NC4(C(=O)N5CCC(CCCC[N+](C)(C)C)CC5)CCOCC4)c3Cl)c2n1 | < 5.00
Cc1cc(C)c2cccc(OCc3c(Cl)ccc(S(=O)(=O)NC4(C(=O)N5CCC(CNCCC[N+](C)(C)C)CC5)CCOCC4)c3Cl)c2n1 | < 5.00
Cc1cc(C)c2cccc(OCc3c(Cl)ccc(S(=O)(=O)NC4(C(=O)N5CCN(C(=O)[C@@H](N)CCCCN)CC5)CCOCC4)c3Cl)c2n1 | < 5.00
Cc1cc(C)c2cccc(OCc3c(Cl)ccc(S(=O)(=O)NC4(C(=O)N5CCN(C(=O)[C@@H](N)CCCC[N+](C)(C)C)CC5)CCOCC4)c3Cl)c2n1 | < 5.00

Exercise: Please report the measured pKi for "Cc1cc(C)c2cccc(OCc3c(Cl)ccc(S(=O)(=O)NC4(C(=O)N5CCN(CCCCCC[N+](C)(C)C)CC5)CCOCC4)c3Cl)c2n1"
Solution: < 5.00

Exercise: Please report the measured pKi for "Cc1cc(C)c2cccc(OCc3c(Cl)ccc(S(=O)(=O)NC4(C(=O)N5CCN(C(=O)CCCCN)CC5)CCOCC4)c3Cl)c2n1"
Solution: < 5.00

Exercise: Please report the measured pKi for "Cc1cc(C)c2cccc(OCc3c(Cl)ccc(S(=O)(=O)NC4(C(=O)N5CCN(CCC[N+](C)(C)C)CC5)CCOCC4)c3Cl)c2n1"
Solution: < 5.00
